# target-system: T1, EsCas13d, nuclease-dead (Eubacterium siraeum, UniProt B0MS50, R295A;H300A;R849A;H854A)
# T1 sequence: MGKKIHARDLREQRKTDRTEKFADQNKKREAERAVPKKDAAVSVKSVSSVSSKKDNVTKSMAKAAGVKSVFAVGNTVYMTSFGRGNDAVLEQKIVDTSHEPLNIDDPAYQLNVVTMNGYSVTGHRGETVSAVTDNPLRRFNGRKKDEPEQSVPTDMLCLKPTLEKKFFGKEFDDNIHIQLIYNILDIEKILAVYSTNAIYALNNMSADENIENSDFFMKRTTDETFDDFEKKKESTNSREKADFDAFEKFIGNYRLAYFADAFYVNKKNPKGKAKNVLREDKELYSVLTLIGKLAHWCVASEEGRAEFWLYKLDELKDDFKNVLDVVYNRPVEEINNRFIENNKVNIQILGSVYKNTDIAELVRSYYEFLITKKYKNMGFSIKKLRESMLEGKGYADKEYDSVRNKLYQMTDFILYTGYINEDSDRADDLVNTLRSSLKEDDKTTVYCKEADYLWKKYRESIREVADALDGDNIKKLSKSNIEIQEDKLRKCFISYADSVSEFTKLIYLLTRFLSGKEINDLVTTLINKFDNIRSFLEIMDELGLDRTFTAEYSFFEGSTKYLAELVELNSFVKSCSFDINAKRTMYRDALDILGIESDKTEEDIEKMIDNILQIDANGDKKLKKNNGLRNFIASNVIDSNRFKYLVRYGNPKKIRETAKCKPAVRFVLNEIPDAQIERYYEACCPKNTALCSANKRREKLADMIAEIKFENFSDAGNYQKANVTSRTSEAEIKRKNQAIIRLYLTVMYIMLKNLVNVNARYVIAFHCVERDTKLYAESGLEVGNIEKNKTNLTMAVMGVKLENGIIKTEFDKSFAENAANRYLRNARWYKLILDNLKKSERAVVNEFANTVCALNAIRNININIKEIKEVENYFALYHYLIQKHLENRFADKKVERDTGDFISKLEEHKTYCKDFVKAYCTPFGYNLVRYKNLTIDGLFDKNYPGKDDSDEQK
# protocol-description: crRNA (strand 1, pre-loaded); Mg2+; 40 mM Tris-HCl pH 7.5, 150 mM NaCl, 6 mM MgCl2, 1 mM DTT, 0.1% Tween-20, 0.2 mg/ml BSA; 25 C; 10 min per concentration, then washed
# condition-notes: tags: His6-TwinStrep-SUMO cleaved; N-terminal SNAP kept (SNAP-Surface 488); label: 3' end held by stalled T7 RNA polymerase
Classify: Met when Kd is strictly less than 20 nM; Not met when Kd is not.

Lab note: Kd threshold 20 nM. Does this binder come in strictly under it? target 2 MT 5'PFS UGU 3'PFS ACU (mixed) RNA 1: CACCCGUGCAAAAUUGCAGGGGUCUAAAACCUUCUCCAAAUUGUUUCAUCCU RNA 2: GGGAAUGGAUCCACAUCUACGAAUUCUGUAGGAUGAAACAAUUUGGAGAAGACUAGAUCGGAAGAGCACACGU
Not met

Here is the next binder: target 1 MT 5'PFS GGG 3'PFS GGC (mixed) RNA 1: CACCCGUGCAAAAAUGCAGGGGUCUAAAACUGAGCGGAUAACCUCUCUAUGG RNA 2: GGGAAUGGAUCCACAUCUACGAAUUCGGGCCAUAGAGAGGUUAUCCGCUCAGGCAGAUCGGAAGAGCACACGU
Not met

Same question for target 1 insA 3' of 21,insG 3' of 2 (mixed) RNA 1: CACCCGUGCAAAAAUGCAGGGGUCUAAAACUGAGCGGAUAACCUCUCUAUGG RNA 2: GGGAAUGGAUCCACAUCUACGAAUUCGUACCAAUAGAGAGGUUAUCCGCUCGACCGAGAUCGGAAGAGCACACGU please.
Met

Next binder up: target 1 MT 5'PFS CUA 3'PFS CCG (mixed) RNA 1: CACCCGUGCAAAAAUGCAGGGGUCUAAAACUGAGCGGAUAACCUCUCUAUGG RNA 2: GGGAAUGGAUCCACAUCUACGAAUUCCUACCAUAGAGAGGUUAUCCGCUCACCGAGAUCGGAAGAGCACACGU
Met

Continue with target 1 MT 5'PFS GGC 3'PFS UUC (mixed) RNA 1: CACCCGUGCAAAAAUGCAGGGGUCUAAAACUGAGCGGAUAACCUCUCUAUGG RNA 2: GGGAAUGGAUCCACAUCUACGAAUUCGGCCCAUAGAGAGGUUAUCCGCUCAUUCAGAUCGGAAGAGCACACGU
Met

Follow-up item: target 1 del1,del2 (mixed) RNA 1: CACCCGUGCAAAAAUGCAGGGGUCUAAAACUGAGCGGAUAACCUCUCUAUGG RNA 2: GGGAAUGGAUCCACAUCUACGAAUUCGUACCAUAGAGAGGUUAUCCGCUCCGAGAUCGGAAGAGCACACGU
Met

Proceed to target 1 insC 3' of 9,insA 3' of 4 (mixed) RNA 1: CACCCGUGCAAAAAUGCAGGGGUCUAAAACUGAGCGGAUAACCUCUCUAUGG RNA 2: GGGAAUGGAUCCACAUCUACGAAUUCGUACCAUAGAGAGGUUACUCCGCAUCACCGAGAUCGGAAGAGCACACGU
Met

Follow-up entry: target 1 insA 3' of 21,insG 3' of 1 (mixed) RNA 1: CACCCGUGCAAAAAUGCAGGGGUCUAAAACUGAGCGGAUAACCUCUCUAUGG RNA 2: GGGAAUGGAUCCACAUCUACGAAUUCGUACCAAUAGAGAGGUUAUCCGCUCAGCCGAGAUCGGAAGAGCACACGU
Met

Try the binder target 1 MT 5'PFS AAG 3'PFS UCU (mixed) RNA 1: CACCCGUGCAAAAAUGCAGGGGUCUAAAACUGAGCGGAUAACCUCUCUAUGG RNA 2: GGGAAUGGAUCCACAUCUACGAAUUCAAGCCAUAGAGAGGUUAUCCGCUCAUCUAGAUCGGAAGAGCACACGU
Met

What about target 1 MT 5'PFS CUG 3'PFS ACU (mixed) RNA 1: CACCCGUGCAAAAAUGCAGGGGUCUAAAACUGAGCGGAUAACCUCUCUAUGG RNA 2: GGGAAUGGAUCCACAUCUACGAAUUCCUGCCAUAGAGAGGUUAUCCGCUCAACUAGAUCGGAAGAGCACACGU ?
Met

// same read-out, input: target 1 U11G,G13A (mixed) RNA 1: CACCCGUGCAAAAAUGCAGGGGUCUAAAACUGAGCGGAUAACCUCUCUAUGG RNA 2: GGGAAUGGAUCCACAUCUACGAAUUCGUACCAUAGAGAAGGUAUCCGCUCACCGAGAUCGGAAGAGCACACGU
Met

Same for target 1 insU 3' of 20,insA 3' of 11 (mixed) RNA 1: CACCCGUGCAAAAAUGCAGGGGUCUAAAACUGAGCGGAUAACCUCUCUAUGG RNA 2: GGGAAUGGAUCCACAUCUACGAAUUCGUACCAUUAGAGAGGUAUAUCCGCUCACCGAGAUCGGAAGAGCACACGU
Not met

Same question, target 1 insC 3' of 14,insU 3' of 12 (mixed) RNA 1: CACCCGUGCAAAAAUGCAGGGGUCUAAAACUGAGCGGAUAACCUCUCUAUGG RNA 2: GGGAAUGGAUCCACAUCUACGAAUUCGUACCAUAGAGACGGUUUAUCCGCUCACCGAGAUCGGAAGAGCACACGU this time
Not met

// query: target 1 insG 3' of 18,insA 3' of 5 (mixed) RNA 1: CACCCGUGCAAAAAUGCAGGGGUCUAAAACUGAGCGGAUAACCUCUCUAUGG RNA 2: GGGAAUGGAUCCACAUCUACGAAUUCGUACCAUAGGAGAGGUUAUCCGACUCACCGAGAUCGGAAGAGCACACGU
Not met
